Provide the recorded decrease of Papp values for the entries that follow.
- System: Caco-2 cells
Please respond with the number in % and leave the unit unwritten.

Task item: What does the data say about its decrease of Papp values? Entry: O=[As]O[As]=O (stereo not shown) [As, arsenic oxide (As III)]
Reply: 7.5

Task item: # iterate: CC(=O)[O-].CC(=O)[O-].[Cd+2] [Cd, cadmium acetate]
Reply: 6.3

Task item: # iterate: CC(=O)[O-].CC(=O)[O-].[Pb+2] [Pb, lead acetate]
Reply: 8.2

Task item: # iterate: [Cl][Hg][Cl] [Hg, mercuric chloride]
Reply: 7.9
